System: NCI-H460
Assay: NCI tumour cell line growth inhibition, 48 h
The source made the active and inactive calls. No stated cut-off is given here; in the data, active = GI50 up to about 1.1 µM and inactive = higher. Square brackets hold non-standard residues; d marks the D form. Peptide text beside a SMILES is read from it.
Reply using exactly one outcome from 1 (active), 0 (inactive)

Molecule | Class Assignment
NC1CC2C3CCC2C1C3=O (configuration not stated) | 0
CNc1nc2c(C)ccc3nc(N(C)C)nc-3c2n1C | 0
O=C(/C=C/c1ccccc1F)c1ccc([N+](=O)[O-])cc1 | 0
O=Cc1cc(O)c(O)c(/C=N/n2c3ccccc3c3ccccc32)c1 | 0

Request: Could you check what this test reported for "CC[C@H]1CN2CCc3cc(OC)c(OC)cc3[C@@H]2C[C@@H]1C[C@H]1NCCc2c1[nH]c1ccc(O)cc21" ?
Response: 1

Request: Could you check what this test reported for "Cc1c(/C=N/NC(=S)Nc2ccccc2)c(=O)n(-c2ccccc2)n1C" ?
Response: 0

Request: Could you check what this test reported for CC(C)C[C@H](NC(=O)[C@H](CC(C)C)NC(=O)[C@@H](Cc1c[nH]c2ccccc12)NC(=O)[C@H](Cc1ccccc1)NC(=O)[C@@H](Cc1c[nH]c2ccccc12)NC(=O)[C@H](CCC(N)=O)NC(=O)[C@@H](CCC(N)=O)NC(=O)[C@@H]1CCCN1C(=O)[C@@H](CCCCN)NC(=O)[C@H]1CCCN1C(=O)[C@H](N)CCCN=C(N)N)C(N)=O (H-[dR][dP][dK]P[dQ]Q[dW]F[dW]LL-NH2) ?
Response: 0

Request: Could you check what this test reported for "COC1=CC(=O)c2nc3ccccc3c3ccnc1c23" ?
Response: 1

Request: Could you check what this test reported for "C(=C\c1nccs1)/c1cccc(/C=C/c2nccs2)n1" ?
Response: 0

Request: Could you check what this test reported for "O=C1CCc2cc3c(cc21)CC1(Cc2cc4c(cc2C1)CCCC4)C3" ?
Response: 0

* * *

System: ACHN
Assay: NCI tumour cell line growth inhibition, 48 h
Activity calls are given as the source filed them. Rule as the data show it: active = GI50 up to about 1.1 µM and inactive = higher.
Reply using exactly one outcome from active, inactive

Sample answers from the record:
Molecule | Class Assignment
C=C1CCC2C(C)(CO)C(O)CCC2(C)C1CC(O)/C(=C/CO)C(=O)O (centres undefined) | inactive
C[C@H](CCC(=O)O)[C@H]1CC[C@H]2[C@@H]3[C@@H](O)C[C@@H]4C[C@H](O)CC[C@]4(C)[C@H]3CC[C@]12C [URSODIOL] | inactive
C=C(Cl)[C@@](Cl)(CBr)CC[C@@H](Br)C(C)(C)Cl | active

Request: Could you check what this test reported for "N#Cc1c([N+](=O)[O-])cc(C(F)(F)F)cc1[N+](=O)[O-]" ?
Response: inactive

Request: Could you check what this test reported for CCOC(=O)C(Cc1cn(C(C)=O)c2ccccc12)P(=O)(OCC)OCC (centres undefined) ?
Response: inactive

Request: Could you check what this test reported for C=C(C)C(=O)OC1CC2(C)OC2CC(OC(C)=O)/C(C)=C/C2OC(=O)C(=C)C21 (centres undefined) ?
Response: inactive

Request: Could you check what this test reported for "Fc1cccc2nc(-c3ccccc3)cc(OCc3ccccc3)c12" ?
Response: inactive

Request: Could you check what this test reported for CC(SC(=S)N1CCOCC1)C(=O)Nc1nnc(-c2ccccc2)o1 (centres undefined) ?
Response: inactive

Request: Could you check what this test reported for "CN(CCc1ccc(Br)cc1)CCN1CCCCC1" ?
Response: inactive

Request: Could you check what this test reported for NC1CC2C3CCC2C1C3=O (centres undefined) ?
Response: inactive

Request: Could you check what this test reported for "CCCCCCN(CCCCCC)C(=O)Cc1c2n(c3ccccc13)Cc1ccccc1-2" ?
Response: inactive

Request: Could you check what this test reported for "COC(=O)C(=O)CC(=O)CCn1[nH]c(=O)c(Cl)c(Cl)c1=O" ?
Response: inactive

Request: Could you check what this test reported for "O=C(Nc1ccccc1-c1nn(CN2CCNCC2)c(=S)n(CN2CCNCC2)c1=O)C(F)(F)F" ?
Response: inactive

Request: Could you check what this test reported for "O=c1c2ccc3cccc4c(=O)cc(c5ccccc15)-c2c34" ?
Response: inactive

* * *

System: OVCAR-8
Assay: NCI tumour cell line growth inhibition, 48 h
Active and inactive are the calls of the source. No stated cut-off is given here; in the data, active = GI50 up to about 1.1 µM and inactive = higher.
# reported GI50; entries follow

Here is how some compounds turned out for GI50.
Compound | Result
O=C(O)COc1c(Cl)cc(Cl)c(C(c2c(Cl)cc(Cl)c(OCC(=O)O)c2Cl)C(Cl)(Cl)Cl)c1Cl | 43.8 µM (inactive)
CCOC(=O)CNC(=O)CNC(=O)CNC(=O)CNNc1c(OCc2ccccc2)c(=O)c1=O | > 100 µM (inactive)

Kindly review the next compound as well.
Request: Entry under review: CCN(CC)CC(O)CNc1ccc(NCC(O)CCl)c2c1C(=O)c1ccccc1C2=O (stereo not drawn) . Reported GI50?
Response: 3.85 µM (inactive)

* * *

System: HL-60
Experiment: NCI tumour cell line growth inhibition, 48 h
Calls of active or inactive are those of the source. No stated cut-off is given here; in the data, active = GI50 up to about 1.1 µM and inactive = higher.
Reply using exactly one outcome from active, inactive

Request: Could you check what this test reported for "NC(=O)NC(=O)c1cccc(NC(=O)CCl)c1" ?
Response: active

Request: Could you check what this test reported for CC(C)(O)[C@@H]1CC[C@](C)(C2[C@@H](O)C[C@@]3(C)C4C[C@H](OC5OCC(O)C(O)C5O)[C@H]5C(C)(C)[C@@H](OC6OCC(O)C(O)C6OC6OCC(O)C(O)C6O)CC[C@@]56C[C@@]46CC[C@]23C)O1 (stereo partly specified) ?
Response: inactive

* * *

Tested on: SK-MEL-2
Assay: NCI tumour cell line growth inhibition, 48 h
Activity calls are given as the source filed them. Cut-off read from the data, not from the text of the source: active = GI50 up to about 1.1 µM and inactive = higher.
Reply using exactly one outcome from 1 (active), 0 (inactive)

Molecule | Class Assignment
COc1ccc(N2C(=O)C(N3C(=O)C=CC3=O)C2C=O)cc1 (stereo not drawn) | 0
CCC/C(=N\NC(=S)N1CC2CCC(CC2)C1)c1ccccn1 | 1
CC1=Cc2ccc(C)cc2C(=O)C1=O | 0
COC(=O)[C@](NC(=O)OCc1ccccc1)([C@@H](C)Sc1ccc(C)cc1)C(F)(F)F | 0
O=c1cccc(C2CC(CO)C3CCCCN3C2)[nH]1 (stereo not drawn) | 0

Request: Could you check what this test reported for "O=C(CCN(C(=O)O)S(=O)(=O)c1ccc(NC(=O)c2ccccc2)cc1)Nc1ccccc1" ?
Response: 0

Request: Could you check what this test reported for "CC1=CC[C@H](C[C@H](C#CCCCC2OCCO2)O[Si](C(C)C)(C(C)C)C(C)C)C(=O)CC1" ?
Response: 0

Request: Could you check what this test reported for CC1OC(OC2C[C@](O)(C(=O)CBr)Cc3c(O)c4c(c(O)c32)C(=O)c2ccccc2C4=O)C(F)C(O)C1O (stereo partly drawn) ?
Response: 0

* * *

# reported GI50; entries follow
Test system: SF-295
Assay: NCI tumour cell line growth inhibition, 48 h
Active and inactive are the calls of the source. Rule as the data show it: active = GI50 up to about 1.1 µM and inactive = higher.

Request: Entry under review: CCCCCCCCCCCCCCCCCCOCC(O)COP(=O)(O)OCC1OC(n2cc(F)c(=O)[nH]c2=O)CC1O (stereo not drawn) . Reported GI50?
Response: 0.682 µM (active)

Request: Entry under review: "Cc1cc2c(O)c(c1)CN(CC(=O)O)Cc1cc(C)cc(c1O)CN(CC(=O)O)Cc1cc(C)cc(c1O)CN(CC(=O)O)C2" . Reported GI50?
Response: > 100 µM (inactive)

Request: Entry under review: "CCC(=O)/C(=C\I)c1ccccc1" . Reported GI50?
Response: 18.5 µM (inactive)

Request: Entry under review: N#Cc1cc([N+](=O)[O-])ccc1NC(=O)C(=O)C(C(=O)c1ccc2ccccc2c1)C1OCc2ccccc21 (stereo not drawn) . Reported GI50?
Response: 3.15 µM (inactive)

Request: Entry under review: CC(C)(O)[C@@H]1CC[C@](C)(C2[C@@H](O)C[C@@]3(C)C4C[C@H](OC5OCC(O)C(O)C5O)[C@H]5C(C)(C)[C@@H](OC6OCC(O)C(O)C6OC6OCC(O)C(O)C6O)CC[C@@]56C[C@@]46CC[C@]23C)O1 (stereo partly drawn) . Reported GI50?
Response: > 100 µM (inactive)

Request: Entry under review: "COc1cc(-c2nc(SC)nc3c2CCc2ccccc2-3)cc(OC)c1OC" . Reported GI50?
Response: 91 µM (inactive)

Request: Entry under review: "O=C(CSc1nc2ccc(I)cc2c(=O)n1Cc1ccccc1)N/N=C/c1ccccc1" . Reported GI50?
Response: 11.4 µM (inactive)

Request: Entry under review: N#CC1(Cc2ccc(N)cc2)c2ccccc2C=CN1C(=O)c1ccccc1 (stereo not drawn) . Reported GI50?
Response: 33 µM (inactive)

* * *

System: A549
Experiment: NCI tumour cell line growth inhibition, 48 h
Activity calls are given as the source filed them. No stated cut-off is given here; in the data, active = GI50 up to about 1.1 µM and inactive = higher. Square brackets hold non-standard residues; d marks the D form. Peptide text beside a SMILES is read from it.
Reply using exactly one outcome from yes for active, no for inactive

Sample answers from the record:
Molecule | Class Assignment
CC1=C(C(=O)OC23CC4CC(CC(C4)C2)C3)C(c2ccccc2OC(F)F)C(C(=O)OC23CC4CC(CC(C4)C2)C3)=C(C)N1 (configuration not stated) | no
[N-]=[N+]=NCC(=O)c1cnc(O)nc1O | no
O=c1c2ccc3cccc4c(=O)cc(c5ccccc15)-c2c34 | no
ClCCN(CC#CCCCC#CCN(CCCl)CCCl)CCCl | no
CC(C)C[C@H](NC(=O)[C@H](CC(C)C)NC(=O)[C@@H](Cc1c[nH]c2ccccc12)NC(=O)[C@H](Cc1ccccc1)NC(=O)[C@@H](Cc1c[nH]c2ccccc12)NC(=O)[C@H](CCC(N)=O)NC(=O)[C@@H](CCC(N)=O)NC(=O)[C@@H]1CCCN1C(=O)[C@@H](CCCCN)NC(=O)[C@H]1CCCN1C(=O)[C@H](N)CCCN=C(N)N)C(N)=O (H-[dR][dP][dK]P[dQ]Q[dW]F[dW]LL-NH2) | no

Request: Could you check what this test reported for O=C([O-])Cc1ccccc1.[Na+] [SODIUM PHENYLACETATE] ?
Response: no

Request: Could you check what this test reported for "C=CCOC(=O)CCCCCCCCCCCCCCCOC(=O)C1=C(CCC[C@@H](C)O[Si](C)(C)C(C)(C)C)NC(=O)N2[C@H](CC3(CC/C=C\[C@H](CC)O[Si](C(C)C)(C(C)C)C(C)C)OCCO3)CC[C@H]12" ?
Response: no

Request: Could you check what this test reported for "CC1(C)N=C(N)N=C(N)N1c1cccc(OCc2cccc([N+](=O)[O-])c2)c1" ?
Response: no

Request: Could you check what this test reported for "O=C(c1ccccc1)N(CCCCNC(=O)C(F)(F)F)CCCNC(=O)C(F)(F)F" ?
Response: no

Request: Could you check what this test reported for CN1CCC(SC2Cc3cc(Cl)ccc3Sc3ccccc32)CC1 (configuration not stated) ?
Response: no

Measured values drawn from ChEMBL document CHEMBL1201862 for this set.
